# System: eclipta prostrata
# experimental details: Herbicidal activity, pot culture method (primary and secondary screening test)
# Format: in vivo
# experimental conditions: primary screening, pot culture, 150 g/ha, sprayed at 3-leaf stage, result 15 days later
quantity name: herbicidal activity inhibition ratio (%), Eclipta prostrata
Only the number, expressed in %, is required.

Sample records with herbicidal activity inhibition ratio (%), Eclipta prostrata:
compound	reported result
COc1cccc(Cn2c(=O)n(-c3ccccc3C)c(=O)c3cc(C(=O)C4=C(O)CCCC4=O)ccc32)c1 [Compound 84]	80
Cn1c(=O)n(-c2ccc(Br)cc2)c(=O)c2cc(C(=O)C3=C(O)CCCC3=O)ccc21 [Compound 25]	83
Cn1c(=O)n(-c2ccccc2C(F)(F)F)c(=O)c2cc(C(=O)C3=C(O)CCCC3=O)ccc21 [Compound 38]	75
Cc1ccccc1-n1c(=O)[nH]c2ccc(C(=O)C3=C(O)CCCC3=O)cc2c1=O [Compound 68]	0
COc1cccc(-n2c(=O)c3cc(C(=O)C4=C(O)CC(C)(C)CC4=O)ccc3n(C)c2=O)c1 [Compound 56]	75

Query :: # lookup: herbicidal activity inhibition ratio (%), Eclipta prostrata of Cn1c(=O)n(-c2ccc(Cl)cc2Cl)c(=O)c2cc(C(=O)C3=C(O)CC(C)(C)CC3=O)ccc21 [Compound 63]
Result :: 50

Query :: # lookup: herbicidal activity inhibition ratio (%), Eclipta prostrata of Cc1ccccc1-n1c(=O)c2cc(C(=O)C3=C(O)CC(C)(C)CC3=O)ccc2n(CC(C)C)c1=O [Compound 76]
Result :: 0

Query :: # lookup: herbicidal activity inhibition ratio (%), Eclipta prostrata of COc1ccc(-n2c(=O)c3cc(C(=O)C4=C(O)CCCC4=O)ccc3n(C)c2=O)cc1 [Compound 57]
Result :: 80

Query :: # lookup: herbicidal activity inhibition ratio (%), Eclipta prostrata of Cc1cccc(Cl)c1-n1c(=O)c2cc(C(=O)C3=C(O)CCCC3=O)ccc2n(C)c1=O [Compound 95]
Result :: 70

Query :: # lookup: herbicidal activity inhibition ratio (%), Eclipta prostrata of Cc1cccc(C)c1-n1c(=O)c2c(C)c(C(=O)C3=C(O)CCCC3=O)ccc2n(C)c1=O [Compound 93]
Result :: 100

Query :: # lookup: herbicidal activity inhibition ratio (%), Eclipta prostrata of Cn1c(=O)n(-c2cccc(C(F)(F)F)c2)c(=O)c2cc(C(=O)C3=C(O)CCCC3=O)ccc21 [Compound 52]
Result :: 75

Query :: # lookup: herbicidal activity inhibition ratio (%), Eclipta prostrata of Cc1ccc(-n2c(=O)c3cc(C(=O)C4=C(O)CC(C)(C)CC4=O)ccc3n(C)c2=O)cc1 [Compound 15]
Result :: 60

Query :: # lookup: herbicidal activity inhibition ratio (%), Eclipta prostrata of Cn1c(=O)n(-c2ccc(Cl)cc2)c(=O)c2cc(C(=O)C3=C(O)CCCC3=O)ccc21 [Compound 1]
Result :: 85

Query :: # lookup: herbicidal activity inhibition ratio (%), Eclipta prostrata of CCn1c(=O)n(-c2ccccc2C)c(=O)c2cc(C(=O)C3=C(O)CCCC3=O)ccc21 [Compound 66]
Result :: 95

Query :: # lookup: herbicidal activity inhibition ratio (%), Eclipta prostrata of Cc1ccccc1-n1c(=O)c2cc(C(=O)C3=C(O)CC(C)(C)CC3=O)ccc2n(Cc2ccccc2)c1=O [Compound 80]
Result :: 0

###

# Tested on: eclipta prostrata
# experimental details: Herbicidal activity, pot culture method (primary and secondary screening test)
# Format: in vivo
# experimental conditions: primary screening, pot culture, 150 g/ha, sprayed at 3-leaf stage, result 15 days later
quantity name: herbicidal activity inhibition ratio (%), Eclipta prostrata
Record the result as a number with its unit.

molecule	system under test	reported result
Cn1c(=O)n(-c2ccccc2F)c(=O)c2cc(C(=O)C3=C(O)CCCC3=O)ccc21	eclipta prostrata	80%

Query :: # value lookup — system eclipta prostrata, readout herbicidal activity inhibition ratio (%), Eclipta prostrata, item Cc1c(C(=O)C2=C(O)CC(C)(C)CC2=O)ccc2c1c(=O)n(-c1ccccc1C(F)(F)F)c(=O)n2C
Result :: 100%

Query :: # value lookup — system eclipta prostrata, readout herbicidal activity inhibition ratio (%), Eclipta prostrata, item Cn1c(=O)n(-c2ccccc2F)c(=O)c2cc(C(=O)C3=C(O)CC(C)(C)CC3=O)ccc21
Result :: 90%

Reference source: patent US9771334B2
